Please respond with reported self-cleavage for every item in the list.
B1: HDV Ribozyme (parent)
chain: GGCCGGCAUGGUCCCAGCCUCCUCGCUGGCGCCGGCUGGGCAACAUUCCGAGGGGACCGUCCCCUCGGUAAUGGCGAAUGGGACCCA

- Variants of: B1
- Assay notes: self-cleavage, relative activity (ratio to wild type); higher = more cleavage; co-transcriptional

Sample answers from the record:
{"Mut": "U9C C64A", "self-cleavage": 0.831}
{"Mut": "C66G A77G", "self-cleavage": 0.612}
{"Mut": "G39U C58U", "self-cleavage": 0.716}
{"Mut": "C21G U46A", "self-cleavage": 0.147}
{"Mut": "A43G C84A", "self-cleavage": 0.712}

Items follow; give self-cleavage for each.
1. G50A C61U
2. G31U G35C

## Output
0.649
0.141

Items follow; give self-cleavage for each.
1. G31A A43U
2. U23C A45G
3. A16C G52C
4. G28A A70U
5. C18U G54C
6. G28C G55C
7. C13A A71G
8. C22U U79C

## Output
1. 0.128
2. 0.8
3. 1.04
4. 0.203
5. 0.606
6. 0.0692
7. 0
8. 0.198
